meta.source: ChEMBL document CHEMBL3885881

species on record: Rattus norvegicus; test: DrugMatrix - Regimen: Daily Repeat; assay type: toxicity, organism-based, Sprague-Dawley; parameters: regimen Daily Repeat, gender Male, age 6-8 weeks; details: in vivo, po, 0 mg/kg, 72 h, tissue Blood, route oral GAVAGE, dose level Control, time 3 day, vehicle .5 % CMC
# ABSOLUTE LYMPHOCYTE per entry
Metric: ABSOLUTE LYMPHOCYTE (CELLS/uL)

• NCC(CC(=O)O)c1ccc(Cl)cc1 (stereo unspecified) = 13776.5
• NC(=O)CN1CCCC1=O = 12191.17
• CC(=O)Nc1ccc2c(c1)Cc1ccccc1-2 = 13776.5
• O=C(O)CCc1nc(-c2ccccc2)c(-c2ccccc2)o1 = 12269.67
• Cl.NC[C@H]1CC[C@H](C(=O)Oc2ccc(CCC(=O)O)cc2)CC1 [CETRAXATE HYDROCHLORIDE] = 11670.5
• CCOc1cc(N)c(Cl)cc1C(=O)NCC1CN(Cc2ccc(F)cc2)CCO1 (stereo unspecified) [MOSAPRIDE] = 13776.5
• CC(C)(C#N)c1cc(Cn2cncn2)cc(C(C)(C)C#N)c1 = 10913.67
• NC(=O)NC(=O)Cc1ccccc1 [PHENACEMIDE] = 10149.83
• COc1cc(/C=C/C(=O)O)ccc1O [FERULATE] = 11670.5
• Cc1cc2c(s1)Nc1ccccc1N=C2N1CCN(C)CC1 = 15937.67
• CCN1CCCC1CNC(=O)c1cc(S(N)(=O)=O)ccc1OC (stereo unspecified) [SULPIRIDE] = 12269.67

====

Below, each of the compounds is paired with its reported LACTATE DEHYDROGENASE value.
species on record: Rattus norvegicus; assay: DrugMatrix - Regimen: Daily Repeat; type: toxicity, organism-based, Sprague-Dawley; design: regimen Daily Repeat, gender Male, age 6-8 weeks; details: in vivo, po, 0 mg/kg, 72 h, tissue Plasma, route oral GAVAGE, dose level Control, time 3 day, vehicle 100 % SALINE
Metric: LACTATE DEHYDROGENASE (u/L)

• Cc1ccnc2c1NC(=O)c1cccnc1N2C1CC1 = 107
• CCN(CC)N=O = 513.5
• CCO = 88.17
• CC(CN1c2ccccc2Sc2ccccc21)N(C)C (stereo not given) = 168.33
• O=[As][O-].[Na+] [SODIUM ARSENITE] = 88.17

====

species on record: Rattus norvegicus; assay: DrugMatrix - Regimen: Daily Repeat; format: toxicity, organism-based, Sprague-Dawley; design: regimen Daily Repeat, gender Male, age 6-8 weeks; settings: in vivo, po, 0 mg/kg, 72 h, tissue Blood, route oral GAVAGE, dose level Control, time 3 day, vehicle .5 % CMC
Quick reference for NUCLEATED RED BLOOD CELLS among some molecules
Metric: NUCLEATED RED BLOOD CELLS

• O=C(O)CCc1nc(-c2ccccc2)c(-c2ccccc2)o1 = 0.33 /100WBC
• CC(=O)Nc1ccc2c(c1)Cc1ccccc1-2 = 0 /100WBC
• CCN1CCCC1CNC(=O)c1cc(S(N)(=O)=O)ccc1OC (stereo unspecified) [SULPIRIDE] = 0.33 /100WBC
• NC(=O)CN1CCCC1=O = 0 /100WBC
• NC(=O)NC(=O)Cc1ccccc1 [PHENACEMIDE] = 0.5 /100WBC
• COc1cc(/C=C/C(=O)O)ccc1O [FERULATE] = 0 /100WBC
